Quick list: pEC50 per entry.
- target.or.system: T1, human interleukin-2 receptor β-chain (IL-2Rβ; CD122), recombinant protein (human) (UniProt P14784)
- T1 sequence: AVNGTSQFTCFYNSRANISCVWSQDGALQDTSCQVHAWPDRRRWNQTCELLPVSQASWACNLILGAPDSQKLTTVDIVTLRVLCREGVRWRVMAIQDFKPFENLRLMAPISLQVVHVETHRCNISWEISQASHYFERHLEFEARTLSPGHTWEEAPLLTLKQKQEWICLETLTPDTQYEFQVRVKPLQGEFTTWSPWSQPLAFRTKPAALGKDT
- method: ELISA, monovalent VHH-hFc
The quantity pEC50 is defined as the negative base-10 logarithm of the molar concentration.

{"binder": "20-MP03F10 VHH-hFc, monospecific monovalent (Fc fusion, part only; not given: Both Fc arms and linker, not shown: another chain or arm of the molecule; a dimerising Fc or GST; large carriers; small tags and cut ends) VHH: EVQLVESGGGLVQAGGSLRLSCAASGRDFSSYAMGWFRQAPGKEREFVVAITWTKRSTDFPDSVKGRFTISRDNAKNTVYLDMNSLKPEDTAVYYCASARGLPVTPLGDIIYWGEGTLVTVSS", "pEC50": 9.71}

Entry 23-MP06F03 VHH-hFc, monospecific monovalent (Fc fusion, part only; not given: Both Fc arms and linker, not shown: another chain or arm of the molecule; a dimerising Fc or GST; large carriers; small tags and cut ends) VHH: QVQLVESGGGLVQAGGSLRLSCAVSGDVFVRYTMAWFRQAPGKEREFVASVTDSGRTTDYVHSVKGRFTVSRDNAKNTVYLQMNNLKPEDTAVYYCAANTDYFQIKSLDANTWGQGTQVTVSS ; pEC50 = 9.76

Entry 18-MP03C03 VHH-hFc, monospecific monovalent (Fc fusion, part only; not given: Both Fc arms and linker, not shown: another chain or arm of the molecule; a dimerising Fc or GST; large carriers; small tags and cut ends) VHH: QVQLVESGGGLVQPGGSLRLSCAISGGTLDSYGIGWVRQAPGKQREGVSCMSRSDDRTYYADSVKGRFTISKDSAKNTVYLQMTSLKPEDTAVYYCAAVDAYGCSLVQPTTYDFWGLGTQVTVSS ; pEC50 = 9.43

Entry 15-MP02E06 VHH-hFc, monospecific monovalent (Fc fusion, part only; not given: Both Fc arms and linker, not shown: another chain or arm of the molecule; a dimerising Fc or GST; small tags and cut ends) VHH: QVQLVESGGGSVQPGGSLRLSCAASGFTFSNYAMSWVRQAPGKGLEWVASITGFGRGTDYADSVKGRFTISRDNAEDTLYLQMNSLKPEDTAVYYCAKYSSSTYYPPTPARGRDYRGQGTQVTVSS ; pEC50 = 9.19

Entry 16-MP02B08 VHH-hFc, monospecific monovalent (Fc fusion, part only; not given: Both Fc arms and linker, not shown: another chain or arm of the molecule; a dimerising Fc or GST; large carriers; small tags and cut ends) VHH: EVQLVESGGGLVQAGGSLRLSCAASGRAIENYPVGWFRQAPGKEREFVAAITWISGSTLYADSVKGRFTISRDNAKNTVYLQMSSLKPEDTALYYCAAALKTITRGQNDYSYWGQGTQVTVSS ; pEC50 = 9.67

Entry 17-MP02C09 VHH-hFc, monospecific monovalent (Fc fusion, part only; not given: Both Fc arms and linker, not shown: another chain or arm of the molecule; a dimerising Fc or GST; large carriers; small tags and cut ends) VHH: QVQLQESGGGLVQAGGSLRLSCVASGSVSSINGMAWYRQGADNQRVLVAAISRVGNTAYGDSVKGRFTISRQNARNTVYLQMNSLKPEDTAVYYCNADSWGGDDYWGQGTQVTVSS ; pEC50 = 9.83

Entry 26-MP06A07 VHH-hFc, monospecific monovalent (Fc fusion, part only; not given: Both Fc arms and linker, not shown: another chain or arm of the molecule; a dimerising Fc or GST; large carriers; small tags and cut ends) VHH: QVQLQESGGGLVQAGGSLRLSCAASGDVFVRYTMAWFRQAPGKEREFVASVTDSGRTTEYVDSVKGRFTVSRDNAKNTAYLQMNNLKPEDTAIYYCAANTDYFQIRSLDLNTWGQGTQVTVSS ; pEC50 = 10.07

Entry 19-MP03F08 VHH-hFc, monospecific monovalent (Fc fusion, part only; not given: Both Fc arms and linker, not shown: another chain or arm of the molecule; a dimerising Fc or GST; large carriers; small tags and cut ends) VHH: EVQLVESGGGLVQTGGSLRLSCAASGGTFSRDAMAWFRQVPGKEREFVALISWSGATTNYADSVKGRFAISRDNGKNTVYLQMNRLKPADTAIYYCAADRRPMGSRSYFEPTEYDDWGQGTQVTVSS ; pEC50 = 9.17

The measured values listed here are drawn from patent US20240409645A1.
